Target: ERK-½
Experiment: In vitro kinase assay, ERK
Conditions: RTK table
pIC50: −log10 of the molar value.
test readout: pIC50

q: // pIC50 lookup, key: CN1CCN(c2ccc3nc(-c4c(N)c5c(F)cccc5[nH]c4=O)[nH]c3c2)CC1 [Compound 1]
a: < 5.00
